# Tested on: Proteus vulgaris
# Experiment description: Antimicrobial activity against Proteus vulgaris KUKEM1329 by disk diffusion method at 300 ug/disc
# Type: functional
Assignment: determine reported inhibition zone (IZ) for the given compounds.

Request: inhibition zone (IZ), test system Proteus vulgaris, entry CCn1c(-c2cc(-c3ccc(F)cc3F)ccc2O)n[nH]c1=S 9 mm

Quick one: Cn1c(-c2cc(-c3ccc(F)cc3F)ccc2O)n[nH]c1=S 8 mm

Quick one: Oc1ccc(-c2ccc(F)cc2F)cc1-c1nnc(Nc2ccccc2)s1 16 mm

Quick one: Oc1ccc(-c2ccc(F)cc2F)cc1-c1n[nH]c(=S)n1C1CCCCC1 12 mm

Quick one: COc1ccc(-n2c(-c3cc(-c4ccc(F)cc4F)ccc3O)n[nH]c2=S)cc1 10 mm

Quick one: C=CCn1c(-c2cc(-c3ccc(F)cc3F)ccc2O)n[nH]c1=S 9 mm
